Provide the reported Population Healthy Nuclei (%) of each item.
Test system: U2OS
Test: Multiplex assay against U2OS
Type: toxicity, cell-based
Stated Conditions: human, 12 h, 1 µM, compound concentration 1 uM, replicate 1
Give bare numbers, in %.

For orientation, consider the following solved cases.
Oc1cccc(-c2nc(N3CCOCC3)c3oc4ncccc4c3n2)c1; 67
CC(C)[C@H](CO)Nc1nc(Nc2cccc(Cl)c2)c2ncn(C(C)C)c2n1; 76
Cc1c(Nc2ccc(S(=O)(=O)N3CCN(C)CC3)cc2F)nc2ccc(-c3cnn(C4CC4)c3)cn2c1=O; 91
CC(C)c1cc(Nc2nc(N3CCC[C@H](N)C3)ncc2C(N)=O)cc(C(C)C)n1; 67
CCCCN(CC)c1nc(C)nc2c1c(C)cn2-c1c(C)cc(C)cc1C.Cl; 76

Next compound, please.
Identify the reported Population Healthy Nuclei (%) for the following entry. CCOc1ccn(-c2ccc(F)cc2)c(=O)c1C(=O)Nc1ccc(Oc2ccnc(N)c2Cl)c(F)c1
88

###

Provide the reported Growth Rate of each item.
Test system: U2OS
Test: Incucyte cell viability with U2OS; also: filed as whole numbers so only -1 and 0 and 1 occur
Assay type: toxicity, cell-based
Stated Conditions: human, 12 h, 10 µM, compound concentration 10 uM, replicate number 1, timepoint 12 hours
Numbers only.

For orientation, consider the following solved cases.
Cc1c(Nc2ccc(S(=O)(=O)N3CCN(C)CC3)cc2F)nc2ccc(-c3cnn(C4CC4)c3)cn2c1=O; 0
C=CC(=O)Nc1cc(-n2c(=O)ccc3cnc4ccc(-c5ccc(NS(C)(=O)=O)cc5)cc4c32)ccc1C; 1
COc1cc(Nc2ccnc3ccc(Br)cc23)cc(OC)c1OC; 0
CC(C)[C@H](CO)Nc1nc(Nc2cccc(Cl)c2)c2ncn(C(C)C)c2n1; 0
COc1cccc(CNC(=O)c2nc3scc(COCc4ccc(C(=O)O)cc4)c3c(=O)[nH]2)c1 [T-26c]; 1

Hi! Can you tell me Growth Rate for each of these compounds?
1. Cc1cc(OCC(=O)O)cc(C)c1Cc1ccc(O)c(C(C)C)c1
2. NC(=O)[C@@H]1CCCN1C(=O)[C@H](Cc1cnc[nH]1)NC(=O)[C@@H]1CCC(=O)N1
3. CCCCCNC(=N)N/N=C/c1c[nH]c2ccc(OC)cc12.O=C(O)/C=C\C(=O)O [TEGASEROD MALEATE]
4. COc1ccc2c(c1)O[C@@H](c1ccc(OC)c(OC)c1)C[C@H]2NC(=O)C1(c2ccc3c(c2)OC(F)(F)O3)CC1
5. CC(C)(C)c1ccc(C(=O)Nc2cn3cc(-n4ccnc4)ccc3n2)cc1.Cl.Cl
6. CCCCC#Cc1nc(NC)c2ncn([C@@H]3O[C@H](CO)[C@@H](O)[C@H]3O)c2n1

1: 1; 2: 0; 3: 0; 4: 1; 5: 1; 6: 1

Hi! Can you tell me Growth Rate for each of these compounds?
1. CN1CCN(c2ccc(-c3cccc(CN4CCOCC4)c3)cc2NC(=O)c2c[nH]c(=O)cc2C(F)(F)F)CC1
2. COc1cc(OC)c(NC(=O)c2ccc(Cc3cc4c(cc3C)C(C)(C)CCC4(C)C)o2)c(OC)c1

1. 0
2. 1

Hi! Can you tell me Growth Rate for each of these compounds?
1. N#CC1(c2ccccn2)CCN(Cc2cc(C(=O)O)c(=O)n3ccccc23)CC1
2. CS(=O)(=O)N1CCCC(NC(=O)[C@H](CCC2CCCCC2)NC(=O)c2ccc(CNC(=O)c3cnc4ccccn34)cc2)C1 (some centres not stated)

1: 0; 2: 0

Hi! Can you tell me Growth Rate for each of these compounds?
1. CCCCN(CC)c1nc(C)nc2c1c(C)cn2-c1c(C)cc(C)cc1C.Cl
2. CCCc1cc(C)[nH]c(=O)c1CNC(=O)c1cc(-c2ccc(N3CCN(C(C)C)CC3)nc2)cc2c1cnn2C(C)C

1: 0; 2: 1
